For each of the molecules below, state its IC50.
Tested on: human megakaryocyte progenitors (CFU-Mk)
measurement_notes: Human megakaryocyte progenitor CFC proliferation (CFU-Mk) in normal bone marrow
Format: cell-based
experimental_setup: Homo sapiens; 6-point dose response, top concentration 20 μM; read-out: CFU-Mk Total IC50

>>> df
                              line_notation                       experimental_system  value_measured
0  Cc1cc2c(cn1)CN(C(=O)Nc1nc(-c3cccnc3)ccc1N)C2  human megakaryocyte progenitors (CFU-Mk)         > 20 µM

Provide IC50 values for the following items, in order.
1. Cc1ncc2c(n1)CN(C(=O)Nc1nc(-c3ccc(F)s3)ccc1N)C2
2. CCc1ncc2c(n1)CN(C(=O)Nc1nc(-c3cccs3)ccc1N)C2

["2 µM", "2 µM"]

Tell me the measured IC50 of `COCCn1cc2c(n1)CN(C(=O)Nc1nc(-c3ccc(F)cc3F)ccc1N)C2` , please.
10.8 µM

====

Test system: human myeloid progenitors (CFU-GM)
measurement_notes: Myeloid CFU assay (colony forming cell assay, bone marrow)
Assay type: cell-based
experimental_setup: 14 days in culture
Classification field: enter true for Myeloid % control @ 10 uM dose values not below 90%, false for values below it.

Consider the following illustrative entries.
>>> df
                                   compound  assigned_label
0  CCc1ncc2c(n1)CN(C(=O)Nc1nc(-c3ccc(F)cc3)ccc1N)C2 [Compound 17]           false
1  Cc1cc2c(cn1)CN(C(=O)Nc1nc(-c3ccc(F)cc3)ccc1N)C2 [Comparator 3, reference compound]           false
2  Cc1ncc2c(n1)CN(C(=O)Nc1nc(-c3ccc(F)s3)ccc1N)C2 [Compound 2]           false
3  COCc1cc2c(cn1)CN(C(=O)Nc1nc(-c3ccc(F)cc3)ccc1N)C2 [Comparator 5, reference compound]           false
4  Cn1cc2c(n1)CN(C(=O)Nc1nc(-c3cccnc3)ccc1N)C2 [Compound 11]            true
5  Nc1ccc(-c2ccc(F)cc2)nc1NC(=O)N1Cc2cncnc2C1 [Comparator 1, reference compound]           false

Hi team, for Cc1ncc(-c2ccc(N)c(NC(=O)N3Cc4cn(C)nc4C3)n2)s1 [Compound 4] , is the recorded Myeloid % control @ 10 uM dose at or above 90%?
true

Hi team, for Nc1ccc(-c2ccc(F)cc2)nc1NC(=O)N1Cc2cn(C3COC3)nc2C1 [Compound 1] , is the recorded Myeloid % control @ 10 uM dose at or above 90%?
false

Hi team, for Cc1cc2c(cn1)CN(C(=O)Nc1nc(-c3cccnc3)ccc1N)C2 [Compound 12] , is the recorded Myeloid % control @ 10 uM dose at or above 90%?
true

Hi team, for Cc1ncc2c(n1)CN(C(=O)Nc1nc(-c3ccc(F)cc3)ccc1N)C2 [Compound 14] , is the recorded Myeloid % control @ 10 uM dose at or above 90%?
true

Hi team, for CCc1cc2c(cn1)CN(C(=O)Nc1nc(-c3cccnc3)ccc1N)C2 [Compound 8] , is the recorded Myeloid % control @ 10 uM dose at or above 90%?
true

Hi team, for COCCn1cc2c(n1)CN(C(=O)Nc1nc(-c3ccc(F)cc3F)ccc1N)C2 [Compound 9] , is the recorded Myeloid % control @ 10 uM dose at or above 90%?
false

Hi team, for Cn1cc2c(n1)CN(C(=O)Nc1nc(-c3ccc(F)cc3)ccc1N)C2 [Comparator 2, reference compound] , is the recorded Myeloid % control @ 10 uM dose at or above 90%?
false

====

For each of the compounds below, state its log10 half-life.
measurement_notes: Brain and plasma exposure following IV and PO administration to mice
Type: in vivo
experimental_setup: mouse, plasma, iv, 1 mg/kg, mice, 1 mg/kg IV; read-out: IV PK T1/2 (converted)
Record value = log10 of half-life given in h.

Study these solved cases before continuing.
>>> df
                                   compound  value_measured
0  Cc1nc2c(n1C)CN(C(=O)Nc1nc(-c3ccc(F)cc3)ccc1N)C2 [Compound 7]            0.49
1  CCc1cc2c(cn1)CN(C(=O)Nc1nc(-c3cccnc3)ccc1N)C2 [Compound 8]           -0.20
2  Nc1ccc(-c2cccs2)nc1NC(=O)N1Cc2cncnc2C1 [Comparator 6]           -0.82
3  COCCn1cc2c(n1)CN(C(=O)Nc1nc(-c3ccc(F)cc3F)ccc1N)C2 [Compound 9]           -0.19
4  CCc1ncc2c(n1)CN(C(=O)Nc1nc(-c3cccs3)ccc1N)C2 [Compound 3]           -0.13
5  CCc1ncc2c(n1)CN(C(=O)Nc1nc(-c3ccc(F)cc3)ccc1N)C2 [Compound 17]            0.32
6  Cc1ncc2c(n1)CN(C(=O)Nc1nc(-c3ccc(F)cc3)ccc1N)C2 [Compound 14]            0.32
7  Nc1ccc(-c2ccc(F)cc2)nc1NC(=O)N1Cc2cn(C3COC3)nc2C1 [Compound 1]            0.49
8  Cc1ncc(-c2ccc(N)c(NC(=O)N3Cc4cn(C)nc4C3)n2)s1 [Compound 4]            0.27
9  Cc1cc2c(cn1)CN(C(=O)Nc1nc(-c3cccnc3)ccc1N)C2 [Compound 12]           -0.29

Provide log10 half-life values for the following items, in order.
1. Cc1ncc2c(n1)CN(C(=O)Nc1nc(-c3ccc(F)s3)ccc1N)C2 [Compound 2]
2. Cn1cc2c(n1)CN(C(=O)Nc1nc(-c3cccnc3)ccc1N)C2 [Compound 11]
3. Cc1ncc(-c2ccc(N)c(NC(=O)N3Cc4cn(CC(F)F)nc4C3)n2)s1 [Compound 5]

-0.19
0.88
0.45

====

For each of the compounds below, state its half-life.
measurement_notes: Brain and plasma exposure following IV and PO administration to mice
Type: in vivo
experimental_setup: mouse, plasma, po, 10 mg/kg, mice, PO; read-out: PO T1/2 (converted)
Answers are plain numbers, in h.

>>> print(df.to_string())
                              line_notation  value_measured
0  Cc1nc2c(n1C)CN(C(=O)Nc1nc(-c3ccc(F)cc3)ccc1N)C2            2.95
1  Cc1ncc2c(n1)CN(C(=O)Nc1nc(-c3ccc(F)s3)ccc1N)C2            1.25
2  Cc1cc2c(cn1)CN(C(=O)Nc1nc(-c3cccnc3)ccc1N)C2            3.67
3  Nc1ccc(-c2ccc(F)cc2)nc1NC(=O)N1Cc2cn(C3COC3)nc2C1            2.05
4  Cc1ncc(-c2ccc(N)c(NC(=O)N3Cc4cn(CC(F)F)nc4C3)n2)s1            2.33
5  CCc1ncc2c(n1)CN(C(=O)Nc1nc(-c3cccs3)ccc1N)C2            1.48

Provide half-life values for the following items, in order.
1. COCCn1cc2c(n1)CN(C(=O)Nc1nc(-c3ccc(F)cc3F)ccc1N)C2
2. CCc1cc2c(cn1)CN(C(=O)Nc1nc(-c3cccnc3)ccc1N)C2
3. Nc1ccc(-c2cccs2)nc1NC(=O)N1Cc2cncnc2C1
4. CCc1ncc2c(n1)CN(C(=O)Nc1nc(-c3ccc(F)cc3)ccc1N)C2
5. Cn1cc2c(n1)CN(C(=O)Nc1nc(-c3cccnc3)ccc1N)C2
6. Cc1ncc(-c2ccc(N)c(NC(=O)N3Cc4cn(C)nc4C3)n2)s1
7. Cc1ncc2c(n1)CN(C(=O)Nc1nc(-c3ccc(F)cc3)ccc1N)C2

[1.39, 1.27, 0.557, 2.54, 2.9, 2.12, 3.22]

====

For each of the compounds below, state its Erythroid % control @ 10 uM dose.
Tested on: human erythroid progenitors (CFU-E, BFU-E)
measurement_notes: Erythroid CFU assay (colony forming cell assay, bone marrow)
Format: cell-based
experimental_setup: 14 days in culture
Method: Compounds were tested to evaluate the potential effects on human erythroid and myeloid progenitors using colony forming cell assays. Clonogenic progenitors of human erythroid (CFU-E, BFU-E), granulocyte-monocyte (CFU-GM) and multipotential (CFU-GEMM) lineages were assessed in a semi-solid methylcellulose-based media formulation containing rhlL-3 (10 ng/mL), rhGM-SCF (10 ng/mL), rhSCF (50 ng/mL) and Epo (3 U/mL). […]
Give bare numbers, in %.

>>> df
                                   compound  value_measured
0  CCc1ncc2c(n1)CN(C(=O)Nc1nc(-c3cccs3)ccc1N)C2            46.6
1  Cc1cc2c(cn1)CN(C(=O)Nc1nc(-c3cccnc3)ccc1N)C2              93
2  Cc1ncc2c(n1)CN(C(=O)Nc1nc(-c3ccc(F)s3)ccc1N)C2              40
3  COCCn1cc2c(n1)CN(C(=O)Nc1nc(-c3ccc(F)cc3F)ccc1N)C2            40.4

Provide Erythroid % control @ 10 uM dose values for the following items, in order.
1. Nc1ccc(-c2ccc(F)cc2)nc1NC(=O)N1Cc2cn(C3COC3)nc2C1
2. Cc1ncc2c(n1)CN(C(=O)Nc1nc(-c3ccc(F)cc3)ccc1N)C2

37
53
